Assay: amyloid nucleation score (Sup35N fusion, yeast selection) (log enrichment); library NNK1; higher = more nucleation; inactive = no reads after selection;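 also: zero at mode of non-aggregating sequences after 7 days selection at 30°C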
Kind request: treat -0.07 as inclusive, so amyloid nucleation score at -0.07 or higher is 1 (yes), anything lower is 0 (no).

hey, is amyloid nucleation score for this one >= -0.07? HIDWSNVSYGDDRYGSGDCR 1 (yes)

Next record, please: DVQQPPMDSISH 1 (yes)

Request: DLSDLFLYHFVIWTSVNYSY 0 (no)

Proceed to PGKSLIIHMCFSMSKTTENG 1 (yes)

Next entry: PQKLQGQIGCR 0 (no)

Again, but for YDIGFVI 1 (yes)

Ok, now YVSYVCLDWM 1 (yes)

Same question, SMTVNDTLLRLRVGSAILYF this time 0 (no)

Now the substance IEFLAILLVAAMVQ 0 (no)

YELTRIR , same question. 1 (yes)

Try the substance RYRWTSLVFLGMTQH 1 (yes)

Now consider ISCSVKILRCLTCMLFSSVV . 0 (no)

Continue with TFGPTHLGLVKYVEIDYHVA 0 (no)

Likewise for WCRDLHKLYLY ? 0 (no)

Same read-out for VGSNYVCVI ? 0 (no)

Let us now turn to NHMFPMVVTYLWSCFIIGSV 1 (yes)

* * *

Assay: amyloid nucleation score (Sup35N fusion, yeast selection) (log enrichment); library NNK3; higher = more nucleation; inactive = no reads after selection
reported-endpoint: amyloid nucleation score

| sequence-record | amyloid nucleation score |
| --- | --- |
| LSVTRNACTEPFRGFLIGLY | inactive |
| EGKIHNSRLGYFQRRLIVS | inactive |
| YQLELSSGSM | 0.116 |
| CTLQYWGKIIPNERSRSRIV | inactive |
| GCIRLGLNSVGVNNIVA | inactive |

# evaluate next
Requested read-out: amyloid nucleation score. Entry: INNASRRPCNMHVDVYRLLR inactive

* * *

Assay: amyloid nucleation score (Sup35N fusion, yeast selection) (log enrichment); library NNK1; higher = more nucleation; inactive = no reads after selection
reported-endpoint: amyloid nucleation score
Enter a number only.

If you can, please state the reported amyloid nucleation score value of INGMEYLEQKIEVL . 0.091

Now this one: TRNLMPSRSFG 2.08

// repeat for DQRRGFSMETSYTD and report 1.42

Again, but for IHLCYRDYRMHVARLSAETG 0.02

Would you mind doing SYNWMVVFVYECI as well? 0.931

Also SCACYGWSVYSLGNANRVLS ? 0.465

And for YTFGWLLIKPHLRPAFKPHR ? -1.75

# iterate: LYRCYESG -0.378

Follow-up entry: GGVISESTGYLRLIHRRWDG -0.751

Likewise for NRIPHGSRRSRAISKVRDA ? 0.728

Input NGKDFWMSGRYAYVSMHFDR 1.13

Subsequent entry: GPQIGG 1.38

Now the same for TWKAIWSEWYRTVPTGVLSN 0.461

Same question, FKYSGRCWGANECIKNYNYV this time 0.07

Query SFSEICWVVGHYMNGFSQMR next 1.89

What do you have for EKQCVVDFL ? -1.26

Proceed to FGYYFVNGIFLYSSVRYDNM 3.63

Now the same for ASYYQWLSLFFLTNRPFFGG -0.809

Would you kindly repeat that for ILQSFSTVEHFEDLL ? 0.58

Continue with MMSEYSYESFHMLII -2.05

Record: DNRDYVALSFPRKLKWCYIS -0.834

Proceed to THTRCLLVW 0.216

Field entry: VVWILMSAQNRMAPRFDVLT 1.06

What do you get for HSLEDMKHRLGLGGWSSCKV ? 0.183

Moving on to the next substance: NYIVKAFSVVCFTSDTSSFR 6.08

// same read-out, input: RYYLMVFFKWIFEIWKMVLK -0.646

And then NSEISRGGVMGVCAVLLMSF , what is it? 0.273

Now consider FRMRHQERMAGTPVGMGLYC and answer again. -0.327

Same question, PAMSVGQRFYGEQHSCGLSA this time -0.583

Also check TDARTR 1.15

Note, next up: NGFPTNELLFPALKVCNSRV 0.945

ITKNRPARNRLLRTGMYFLL , same question. 0.004

Let us now turn to SILLWDLKANF 0.346

Now the same for YVWDFRKLLYPAGWMSESVR -0.346

Input QTFMHSCEFRVN -0.347
